# Subject of test: von Hippel-Lindau disease tumor suppressor/SWI/SNF-related matrix-associated actin-dependent regulator of chromatin subfamily A member 2 (Homo sapiens, UniProt P51531+P40337)
# Sequence (P40337 whole entry, looked up, the tested form may be a part): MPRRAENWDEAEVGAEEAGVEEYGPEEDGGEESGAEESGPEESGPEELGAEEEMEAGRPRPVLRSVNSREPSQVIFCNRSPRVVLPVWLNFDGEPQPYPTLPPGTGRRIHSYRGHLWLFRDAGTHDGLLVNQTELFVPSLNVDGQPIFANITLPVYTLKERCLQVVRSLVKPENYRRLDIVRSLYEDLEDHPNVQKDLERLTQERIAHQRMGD
# Sequence (P51531 whole entry, looked up, the tested form may be a part): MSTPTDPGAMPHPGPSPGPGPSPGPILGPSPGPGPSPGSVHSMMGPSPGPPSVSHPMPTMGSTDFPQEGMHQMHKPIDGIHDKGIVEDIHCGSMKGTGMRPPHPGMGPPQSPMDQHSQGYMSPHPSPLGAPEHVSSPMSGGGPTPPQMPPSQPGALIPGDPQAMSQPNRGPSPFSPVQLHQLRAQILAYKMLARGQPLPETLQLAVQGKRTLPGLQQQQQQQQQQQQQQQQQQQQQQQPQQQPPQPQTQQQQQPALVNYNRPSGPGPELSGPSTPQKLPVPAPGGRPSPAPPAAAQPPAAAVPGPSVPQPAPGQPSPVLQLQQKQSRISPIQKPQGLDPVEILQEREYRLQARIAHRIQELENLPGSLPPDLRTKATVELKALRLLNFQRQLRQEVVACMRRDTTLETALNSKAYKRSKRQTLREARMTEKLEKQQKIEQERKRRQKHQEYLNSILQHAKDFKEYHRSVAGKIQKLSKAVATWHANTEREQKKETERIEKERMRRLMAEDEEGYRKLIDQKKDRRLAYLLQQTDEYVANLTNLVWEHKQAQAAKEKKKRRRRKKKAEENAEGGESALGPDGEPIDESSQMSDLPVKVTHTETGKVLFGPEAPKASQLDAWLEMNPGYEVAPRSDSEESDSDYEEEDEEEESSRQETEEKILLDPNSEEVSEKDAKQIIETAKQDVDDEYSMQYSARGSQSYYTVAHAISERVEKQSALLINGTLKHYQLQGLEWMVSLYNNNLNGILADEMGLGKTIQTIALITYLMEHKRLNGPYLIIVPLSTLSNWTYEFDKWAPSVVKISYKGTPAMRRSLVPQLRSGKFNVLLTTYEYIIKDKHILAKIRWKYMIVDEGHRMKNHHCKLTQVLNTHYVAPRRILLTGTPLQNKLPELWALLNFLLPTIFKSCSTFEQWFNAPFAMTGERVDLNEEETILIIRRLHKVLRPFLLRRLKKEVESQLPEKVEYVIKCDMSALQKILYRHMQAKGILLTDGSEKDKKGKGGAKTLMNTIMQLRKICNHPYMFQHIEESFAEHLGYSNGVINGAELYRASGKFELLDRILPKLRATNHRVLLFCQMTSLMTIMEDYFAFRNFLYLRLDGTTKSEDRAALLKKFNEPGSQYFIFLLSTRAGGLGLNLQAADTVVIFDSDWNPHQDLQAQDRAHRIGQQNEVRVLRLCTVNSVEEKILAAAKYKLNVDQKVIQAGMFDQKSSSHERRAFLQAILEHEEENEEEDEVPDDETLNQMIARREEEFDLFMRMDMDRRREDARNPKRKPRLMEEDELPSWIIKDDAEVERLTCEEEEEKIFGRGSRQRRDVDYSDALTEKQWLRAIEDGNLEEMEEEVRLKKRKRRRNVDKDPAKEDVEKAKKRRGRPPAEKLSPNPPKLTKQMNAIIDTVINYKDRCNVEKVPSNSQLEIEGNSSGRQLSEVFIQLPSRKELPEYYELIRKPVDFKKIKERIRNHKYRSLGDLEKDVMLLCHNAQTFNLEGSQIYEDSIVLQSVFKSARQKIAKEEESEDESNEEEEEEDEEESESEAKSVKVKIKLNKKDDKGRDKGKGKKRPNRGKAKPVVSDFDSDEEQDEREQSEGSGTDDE
# Test: PROTAC activity at VHL/C-terminal HiBiT fused SMARCA2 in human HeLa cells assessed as induction of SMARCA2 degradation by measuring maximal efficacy incubated for 24 hrs by Nano-Glo HiBiT analysis relative to control
# Type: cell-based
Measured property: Emax (%)

Molecule	Emax / %
Cc1ncsc1-c1ccc([C@H](C)NC(=O)[C@@H]2C[C@@H](O)CN2C(=O)[C@@H](NC(=O)CCCCCCCCCCCn2cc(-c3cc(-c4ccccc4O)nnc3N)cn2)C(C)(C)C)cc1	95
Cc1cc([C@H](C(=O)N2C[C@H](O)C[C@H]2C(=O)N[C@@H](CC(=O)NCCCCCCCCCCCCn2cc(-c3cc(-c4ccccc4O)nnc3N)cn2)c2ccc(-c3scnc3C)cc2)C(C)C)on1	93
Cc1ncsc1-c1ccc([C@H](C)NC(=O)[C@@H]2C[C@@H](O)CN2C(=O)[C@@H](NC(=O)CCCCCn2cc(-c3cc(-c4ccccc4O)nnc3N)cn2)C(C)(C)C)cc1	93
Cc1ncsc1-c1ccc([C@H](C)NC(=O)[C@@H]2C[C@@H](O)CN2C(=O)[C@@H](NC(=O)CCCCCCCn2cc(-c3cc(-c4ccccc4O)nnc3N)cn2)C(C)(C)C)cc1	95
Cc1cc([C@H](C(=O)N2C[C@H](O)C[C@H]2C(=O)N[C@@H](CC(=O)NCCCCCCn2cc(-c3cc(-c4ccccc4O)nnc3N)cn2)c2ccc(-c3scnc3C)cc2)C(C)C)on1	86
Cc1ncsc1-c1ccc([C@H](C)NC(=O)[C@@H]2C[C@@H](O)CN2C(=O)[C@@H](NC(=O)CCOCCOCCn2cc(-c3cc(-c4ccccc4O)nnc3N)cn2)C(C)C)cc1	77
Cc1ncsc1-c1ccc([C@H](C)NC(=O)[C@@H]2C[C@@H](O)CN2C(=O)[C@@H](NC(=O)C2CCC(N3CC4(CCC(n5cc(-c6cc(-c7ccccc7O)nnc6N)cn5)CC4)C3)CC2)C(C)(C)C)cc1 (stereo partly specified)	85
Cc1ncsc1-c1ccc([C@H](CC[C@H](C)CCN2CCC(c3ccc4c(c3)n(C3CCCC3)c3nc(=O)c5c(Br)cccc5n43)CC2)NC(=O)[C@@H]2C[C@@H](O)CN2C(=O)[C@@H](NC(=O)C2(F)CC2)C(C)(C)C)cc1	94
Cc1ncsc1-c1ccc([C@H](C)NC(=O)[C@@H]2C[C@@H](O)CN2C(=O)[C@@H](NC(=O)CCCn2cc(-c3cc(-c4ccccc4O)nnc3N)cn2)C(C)(C)C)cc1	88
Cc1ncsc1-c1ccc([C@H](C)NC(=O)[C@@H]2C[C@@H](O)CN2C(=O)[C@@H](NC(=O)CCCCCCCCCCn2cc(-c3cc(-c4ccccc4O)nnc3N)cn2)C(C)(C)C)cc1	93
Cc1ncsc1-c1ccc([C@H](C)NC(=O)[C@@H]2C[C@@H](O)CN2C(=O)[C@@H](NC(=O)CCCCCN2CCC(n3cc(-c4cc(-c5ccccc5O)nnc4N)cn3)CC2)C(C)(C)C)cc1	94

* * *

# Subject of test: von Hippel-Lindau disease tumor suppressor/SWI/SNF-related matrix-associated actin-dependent regulator of chromatin subfamily A member 4 (Homo sapiens, UniProt P51532+P40337)
# Sequence (P51532 whole entry, the tested form may be a part): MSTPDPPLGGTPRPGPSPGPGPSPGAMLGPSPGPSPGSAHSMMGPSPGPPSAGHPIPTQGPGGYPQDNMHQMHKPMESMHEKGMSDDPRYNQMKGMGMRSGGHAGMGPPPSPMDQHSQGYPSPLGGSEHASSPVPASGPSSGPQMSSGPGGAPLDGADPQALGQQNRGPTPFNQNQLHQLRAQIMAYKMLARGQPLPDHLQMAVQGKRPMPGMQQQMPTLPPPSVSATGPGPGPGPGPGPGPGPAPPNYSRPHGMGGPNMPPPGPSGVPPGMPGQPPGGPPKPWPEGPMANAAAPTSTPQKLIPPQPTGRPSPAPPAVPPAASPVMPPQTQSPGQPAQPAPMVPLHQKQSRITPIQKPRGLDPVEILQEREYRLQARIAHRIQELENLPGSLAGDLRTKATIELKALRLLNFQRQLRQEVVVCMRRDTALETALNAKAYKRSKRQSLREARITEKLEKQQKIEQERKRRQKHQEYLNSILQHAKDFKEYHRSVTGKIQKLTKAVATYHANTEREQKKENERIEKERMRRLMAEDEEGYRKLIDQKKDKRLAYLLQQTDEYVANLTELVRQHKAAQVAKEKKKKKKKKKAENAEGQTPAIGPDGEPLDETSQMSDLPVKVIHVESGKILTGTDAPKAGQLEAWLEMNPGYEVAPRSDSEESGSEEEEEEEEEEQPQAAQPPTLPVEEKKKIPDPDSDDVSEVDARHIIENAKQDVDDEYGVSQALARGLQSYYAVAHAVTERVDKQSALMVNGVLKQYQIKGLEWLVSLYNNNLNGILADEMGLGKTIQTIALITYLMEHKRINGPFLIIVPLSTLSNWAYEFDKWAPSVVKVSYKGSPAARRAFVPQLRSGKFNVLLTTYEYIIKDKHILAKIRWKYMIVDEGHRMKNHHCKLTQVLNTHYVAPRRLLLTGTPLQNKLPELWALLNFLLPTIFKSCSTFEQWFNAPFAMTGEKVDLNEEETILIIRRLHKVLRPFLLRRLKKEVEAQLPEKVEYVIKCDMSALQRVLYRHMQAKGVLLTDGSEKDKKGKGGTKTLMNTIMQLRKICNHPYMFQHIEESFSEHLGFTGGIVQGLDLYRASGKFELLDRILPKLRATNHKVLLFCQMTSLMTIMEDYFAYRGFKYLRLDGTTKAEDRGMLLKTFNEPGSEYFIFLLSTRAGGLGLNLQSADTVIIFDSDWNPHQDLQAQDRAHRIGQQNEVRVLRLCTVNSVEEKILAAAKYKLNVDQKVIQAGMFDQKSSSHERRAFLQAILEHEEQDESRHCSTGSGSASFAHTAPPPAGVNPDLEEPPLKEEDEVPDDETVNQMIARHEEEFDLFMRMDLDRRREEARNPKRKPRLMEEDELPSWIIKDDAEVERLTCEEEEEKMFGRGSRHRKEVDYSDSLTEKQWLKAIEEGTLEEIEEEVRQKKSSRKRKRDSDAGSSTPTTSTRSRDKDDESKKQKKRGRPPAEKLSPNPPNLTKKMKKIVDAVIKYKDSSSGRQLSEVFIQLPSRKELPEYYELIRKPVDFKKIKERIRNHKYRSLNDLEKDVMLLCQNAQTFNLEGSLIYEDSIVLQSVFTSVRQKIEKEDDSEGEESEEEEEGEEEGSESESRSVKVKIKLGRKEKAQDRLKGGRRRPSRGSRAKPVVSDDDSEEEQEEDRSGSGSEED
# Sequence (P40337 whole entry, the tested form may be a part): as the sequence (P40337 whole entry, looked up, the tested form may be a part) above
# Test: PROTAC activity at VHL/C-terminal HiBiT fused SMARCA4 in human HeLa cells assessed as induction of SMARCA4 degradation incubated for 24 hrs by Nano-Glo HiBiT analysis
# Assay type: cell-based
Measured property: DC50

// solved cases for DC50 follow
Compound	Recorded measurement
Cc1ncsc1-c1ccc([C@H](C)NC(=O)[C@@H]2C[C@@H](O)CN2C(=O)[C@@H](NC(=O)CCCCCn2cc(-c3cc(-c4ccccc4O)nnc3N)cn2)C(C)(C)C)cc1	> 1 µM
Cc1ncsc1-c1ccc([C@H](C)NC(=O)[C@@H]2C[C@@H](O)CN2C(=O)[C@@H](NC(=O)C2CCC(N3CC4(CCC(n5cc(-c6cc(-c7ccccc7O)nnc6N)cn5)CC4)C3)CC2)C(C)(C)C)cc1 (stereo partly drawn)	> 1 µM

Now consider a different compound.
Per the records, this compound ( `Cc1ncsc1-c1ccc([C@H](C)NC(=O)[C@@H]2C[C@@H](O)CN2C(=O)[C@@H](NC(=O)CCn2cc(-c3cc(-c4ccccc4O)nnc3N)cn2)C(C)(C)C)cc1` ) has DC50 equal to > 1 µM
